tested on: K. pneumoniae NVT1001 gyrA/parC and gyrA/parC/ramR mutants and revertants; test: Etest MIC of quinolones, gyrA/parC and gyrA/parC/ramR mutants and their revertants (Table 11); format: cell-based; conditions: Klebsiella pneumoniae, ΔramR/S83I/D87N/S80I::I83S/N87D/I80S revertant
Catalogue of MIC values
observation.type: MIC (µg/mL)

>>> print(df.to_string())
                                   compound                                    target  observation_type  unit_name  reported_measurement
0  COc1c(N2C[C@@H]3CCCN[C@@H]3C2)c(F)cc2c(=O)c(C(=O)O)cn(C3CC3)c12 [Moxifloxacin, moxifloxacin]  K. pneumoniae NVT1001 gyrA/parC and gyrA/parC/ramR mutants and revertants               MIC      µg/mL                     1
1  CC1COc2c(N3CCN(C)CC3)c(F)cc3c(=O)c(C(=O)O)cn1c23 (centres unmarked) [Ofloxacin, ofloxacin]  K. pneumoniae NVT1001 gyrA/parC and gyrA/parC/ramR mutants and revertants               MIC      µg/mL                     2
2  CCn1cc(C(=O)O)c(=O)c2cc(F)c(N3CCNCC3)cc21 [Norfloxacin, norfloxacin]  K. pneumoniae NVT1001 gyrA/parC and gyrA/parC/ramR mutants and revertants               MIC      µg/mL                     2
3  CCn1cc(C(=O)O)c(=O)c2ccc(C)nc21 [Nalidixic acid, nalidixic acid]  K. pneumoniae NVT1001 gyrA/parC and gyrA/parC/ramR mutants and revertants               MIC      µg/mL                    32
4  C[C@H]1COc2c(N3CCN(C)CC3)c(F)cc3c(=O)c(C(=O)O)cn1c23 [Levofloxacin, levofloxacin]  K. pneumoniae NVT1001 gyrA/parC and gyrA/parC/ramR mutants and revertants               MIC      µg/mL                     1
